- Assay procedure: Plasma levels after oral administration (LC-MS)
- Type: in vivo
- Recorded conditions: mouse, oral 160 mg/kg, 3 hours, DBA/2J mice
Measured quantity: concentration at 3 h (µM)
Answer with a number only, understood to be in µM.

Sample Cc1cc(C2(c3ccccc3)C(=O)Nc3ccccc32)c(NS(=O)(=O)c2ccc(C(C)(C)C)cc2)cc1O (stereo not shown) — what was its concentration at 3 h?
3.8

---

- Test system: eIF2α
- Assay procedure: eIF2α phosphorylation measured by Western blot
- Format: cell-based
- Recorded conditions: Western blot; unit or reference not given
Measured quantity: eIF2α-P (phosphorylation of eIF2α measured by Western blot)
I only need the number, thanks.

Worked set:
Cc1cc(C2(c3ccccc3)C(=O)Nc3ccccc32)c(NC(=O)OCC2c3ccccc3-c3ccccc32)cc1O (stereo not drawn) ... 1.84
CC(C)(C)OC(=O)NCCOc1ccc(C(C)(C)C)cc1C1(c2ccccc2)C(=O)Nc2ccccc21 (stereo not drawn) ... 0.89
Cc1cc(C2(c3ccccc3)C(=O)Nc3ccccc32)c(NS(=O)(=O)Cc2ccccc2)cc1O (stereo not drawn) ... 1.84
O=C1Nc2ccc(F)cc2C1(c1ccccc1)c1ccccc1 ... 1.16
COc1cccc(C2(c3ccccc3)C(=O)Nc3ccccc32)c1 (stereo not drawn) ... 1.30

Sample COc1ccc2c(c1)C(c1ccccc1)(c1cc(C(C)(C)C)ccc1O)C(=O)N2 (stereo not drawn) — what was its eIF2α-P (phosphorylation of eIF2α measured by Western blot)?
1.62

Record: O=C1Nc2ccccc2C1(c1ccccc1)c1cc(C2CCCCC2)ccc1O (stereo not drawn)
8.60

Record: CCc1cccc2c1C(c1ccccc1)(c1cc(C(C)(C)C)ccc1O)C(=O)N2 (stereo not drawn)
1.11

Record: Cc1cc(C2(c3ccccc3)C(=O)Nc3c(C(=O)O)cccc32)c(NC(=O)OCC2c3ccccc3-c3ccccc32)cc1O (stereo not drawn)
8.21

Record: `O=C1Nc2c(I)cccc2C1(c1ccccc1)c1ccccc1`
1.88
